molecular target: Receptor tyrosine-protein kinase erbB-4 (Homo sapiens) (UniProt Q15303); conditions: at 0.1 µM;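 note: values are averaged percent inhibition of ERBB4 kinase activity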
Sequence (Q15303 whole entry): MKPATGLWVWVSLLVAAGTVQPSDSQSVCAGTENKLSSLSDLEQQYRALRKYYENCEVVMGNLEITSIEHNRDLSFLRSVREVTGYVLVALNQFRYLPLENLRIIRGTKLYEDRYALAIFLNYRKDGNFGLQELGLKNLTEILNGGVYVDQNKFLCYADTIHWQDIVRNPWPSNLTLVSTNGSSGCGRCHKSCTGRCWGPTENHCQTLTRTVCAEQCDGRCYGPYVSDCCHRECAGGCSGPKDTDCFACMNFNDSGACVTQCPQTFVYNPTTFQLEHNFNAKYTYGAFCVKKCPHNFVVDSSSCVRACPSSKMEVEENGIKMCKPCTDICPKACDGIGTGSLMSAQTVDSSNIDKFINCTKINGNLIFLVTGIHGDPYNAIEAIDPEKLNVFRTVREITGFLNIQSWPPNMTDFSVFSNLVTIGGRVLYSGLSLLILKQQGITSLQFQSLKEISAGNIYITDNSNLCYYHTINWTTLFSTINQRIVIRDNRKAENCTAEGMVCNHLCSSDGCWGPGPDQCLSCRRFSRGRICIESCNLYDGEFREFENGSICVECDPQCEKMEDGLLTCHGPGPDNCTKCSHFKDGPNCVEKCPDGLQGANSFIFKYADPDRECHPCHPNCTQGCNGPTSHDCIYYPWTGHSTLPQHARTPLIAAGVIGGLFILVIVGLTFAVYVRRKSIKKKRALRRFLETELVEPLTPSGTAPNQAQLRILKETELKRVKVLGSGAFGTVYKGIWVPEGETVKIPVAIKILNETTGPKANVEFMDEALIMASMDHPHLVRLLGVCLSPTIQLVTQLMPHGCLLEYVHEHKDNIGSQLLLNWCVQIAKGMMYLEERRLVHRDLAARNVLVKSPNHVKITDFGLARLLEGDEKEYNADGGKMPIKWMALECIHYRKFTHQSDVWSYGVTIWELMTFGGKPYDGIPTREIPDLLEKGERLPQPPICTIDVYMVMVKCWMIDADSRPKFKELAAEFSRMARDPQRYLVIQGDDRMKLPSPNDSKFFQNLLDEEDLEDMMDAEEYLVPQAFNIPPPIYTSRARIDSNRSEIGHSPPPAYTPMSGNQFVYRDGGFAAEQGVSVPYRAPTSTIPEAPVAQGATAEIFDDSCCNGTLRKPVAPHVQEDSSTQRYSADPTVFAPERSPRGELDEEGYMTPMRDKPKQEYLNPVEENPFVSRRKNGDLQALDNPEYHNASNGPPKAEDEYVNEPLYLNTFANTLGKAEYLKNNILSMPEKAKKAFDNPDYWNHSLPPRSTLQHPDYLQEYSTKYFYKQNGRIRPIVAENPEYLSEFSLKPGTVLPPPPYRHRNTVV
Measured metric: inhibition (%)

> print(dat)
                                    molecule  reading.unit  assay.result
 1  CS(=O)(=O)CCNCc1nc(-c2ccc3ncnc(Nc4ccc(OCc5cccc(C(F)(F)F)c5)cc4)c3c2)cs1             %          6.42
 2  Cc1ccc(Nc2ccnc(Nc3cccc(C(N)=O)c3)n2)cc1O             %          6.84
 3  Nc1nccc(-c2c(-c3ccc(F)cc3)nn3cc(C(F)(F)F)ccc23)n1             %          2.34
 4  O=C1Nc2ccccc2/C1=C/Nc1ccc2[nH]c(=O)[nH]c2c1             %          9.76
 5     COC(=O)c1cncc(/C=C/c2c(C)cc(O)cc2C)c1             %          7.72
 6  COC(=O)c1ccc2c(c1)C(=Cc1cc(Br)c(O)c(Br)c1)C(=O)N2             %          3.22
 7  CCS(=O)(=O)c1ccc(OC)c(Nc2nccc(N(C)c3ccc4c(C)n[nH]c4c3)n2)c1             %          18.5
 8  Nc1nccc(-c2c(-c3ccc(F)cc3)ncn2CCCN2CCOCC2)n1             %          12.4
 9  CCCN1CCCC(c2ccc(Nc3nc(Nc4cc(F)ccc4C(N)=O)c4cc[nH]c4n3)c(OC)c2)C1 (stereo not given)             %          36.3
10       COc1cc2ncnc(Nc3ccc(C)c(O)c3)c2cc1OC             %          31.7
11  Nc1nccc(C#Cc2cncnc2Nc2ccc(OCc3cccc(F)c3)c(Cl)c2)n1             %          14.2
12  ON=C1CCc2cc(-c3nc(C4CCNCC4)[nH]c3-c3ccncc3)ccc21             %          5.23
13  CN(C)C(=O)O[C@@H]1CN[C@@H](C#Cc2cc3ncnc(Nc4ccc(OCc5cccc(F)c5)c(Cl)c4)c3s2)C1             %           107
14  COc1cccc(-n2ncc3c(N/N=C/c4ccc(S(C)(=O)=O)cc4)ncnc32)c1             %          7.91
15             CCOc1nccc2c1nc(-c1nonc1N)n2CC             %          6.98
16  CN1CCN(C(=O)c2ccc(NC(=O)Nc3ccc(N(C)c4ccnc(Nc5ccc(CS(C)(=O)=O)cc5)n4)cc3)cc2)CC1             %          7.39
17  CN(c1ccc(NC(=O)Nc2ccc(OC(F)(F)F)cc2)cc1)c1ccnc(Nc2cccc(S(N)(=O)=O)c2)n1             %          7.13
18  NS(=O)(=O)c1cccc(Nc2cc(-c3ccc(F)cc3)n[nH]2)c1             %          5.56
19  COc1cccc(-n2nc(C)c3c(N/N=C(\C)c4ccncc4)ncnc32)c1             %          0.79
20  Cc1ccc(NC(=O)CC2CC2)cc1-c1ccc(C(=O)NCC2CC2)cc1             %          6.43
